# study_system: Mitogen-activated protein kinase kinase kinase kinase 1 (Homo sapiens)
# Sequence (Q92918 whole entry): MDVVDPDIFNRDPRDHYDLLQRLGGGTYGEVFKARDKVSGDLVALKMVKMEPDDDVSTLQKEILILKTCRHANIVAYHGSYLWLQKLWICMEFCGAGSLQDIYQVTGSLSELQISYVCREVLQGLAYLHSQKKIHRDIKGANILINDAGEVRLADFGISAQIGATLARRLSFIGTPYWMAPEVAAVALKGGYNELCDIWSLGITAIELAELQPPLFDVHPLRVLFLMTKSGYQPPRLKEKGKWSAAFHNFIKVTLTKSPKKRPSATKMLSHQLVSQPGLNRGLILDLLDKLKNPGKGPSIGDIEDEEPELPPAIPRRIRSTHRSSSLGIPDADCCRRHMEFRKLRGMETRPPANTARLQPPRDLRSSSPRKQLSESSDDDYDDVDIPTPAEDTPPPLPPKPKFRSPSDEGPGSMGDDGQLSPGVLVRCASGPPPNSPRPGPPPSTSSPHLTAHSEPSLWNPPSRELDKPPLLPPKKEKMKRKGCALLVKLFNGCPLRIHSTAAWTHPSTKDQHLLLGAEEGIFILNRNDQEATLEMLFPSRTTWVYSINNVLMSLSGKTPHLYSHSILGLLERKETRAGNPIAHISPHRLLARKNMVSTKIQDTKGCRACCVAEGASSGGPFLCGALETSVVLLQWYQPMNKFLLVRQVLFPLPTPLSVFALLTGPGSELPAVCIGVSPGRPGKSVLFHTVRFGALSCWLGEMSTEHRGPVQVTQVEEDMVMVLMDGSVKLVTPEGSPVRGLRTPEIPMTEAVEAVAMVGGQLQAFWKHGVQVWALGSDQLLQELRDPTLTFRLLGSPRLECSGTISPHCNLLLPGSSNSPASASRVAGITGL
# assay_procedure: Binding Assay
measured_quantity: pKi
Keep in mind that pKi stands for -log10 of concentration in molar terms.

Could you share what pKi was measured for "Cn1cc(-c2cc3cc(NC(=O)[C@H]4C[C@H]4F)ncc3c(N)n2)cn1" , tested on Mitogen-activated protein kinase kinase kinase kinase 1 (Homo sapiens)? 8.54

Cited source for all entries: BindingDB's records for patent US11034692
